Reported normalised response is given for each of the following molecules.
# System: HCC1599
# assay: normalised response (% of control), CellTiter-Glo; higher = more viable cells (100 = DMSO, 0 = benzethonium chloride kill control)
# reportedConditions: incubation time: 72 h
attributeMeasured: normalised response (%)

1. Cc1ccc(F)c(NC(=O)Nc2ccc(-c3cccc4[nH]nc(N)c34)cc2)c1 [Linifanib] (1000 nM) ... 105
2. C=CCNC1=C2C[C@@H](C)C[C@H](OC)[C@H](O)[C@@H](C)/C=C(\C)[C@H](OC(N)=O)[C@@H](OC)/C=C\C=C(/C)C(=O)NC(=CC1=O)C2=O [Tanespimycin] (10000 nM) ... 54.5
3. Clc1ccc(C(c2ccccc2Cl)C(Cl)Cl)cc1 (centres undefined) [Mitotane] (10000 nM) ... 113
4. CO[C@H]1C[C@@H]2CC[C@@H](C)[C@@](O)(O2)C(=O)C(=O)N2CCCC[C@H]2C(=O)O[C@H]([C@H](C)C[C@@H]2CC[C@@H](OC(=O)C(C)(CO)CO)[C@H](OC)C2)CC(=O)[C@H](C)/C=C(\C)[C@@H](O)[C@@H](OC)C(=O)[C@H](C)C[C@H](C)/C=C/C=C/C=C/1C [Temsirolimus] (100 nM) ... 90.8

====

# Tested on: CAL-120
# assay: normalised response (% of control), CellTox Green; higher = less cell death (100 = DMSO, 0 = benzethonium chloride kill control)
# reportedConditions: incubation time: 72 h
attributeMeasured: normalised response (%)

1) Nc1nc(Cl)nc2c1ncn2[C@H]1C[C@H](O)[C@@H](CO)O1 [Cladribine] (100 nM) ... 101
2) S=c1[nH]cnc2nc[nH]c12 [Mercaptopurine] (1000 nM) ... 104
3) CC[C@]1(O)C[C@@H]2CN(CCc3c([nH]c4ccccc34)[C@@](C(=O)OC)(c3cc4c(cc3OC)N(C)[C@H]3[C@@](O)(C(=O)OC)[C@H](OC(C)=O)[C@]5(CC)C=CCN6CC[C@]43[C@@H]65)C2)C1 [Vinblastine] (100 nM) ... 88.2
4) CC[C@]1(O)C[C@@H]2CN(CCc3c([nH]c4ccccc34)[C@@](C(=O)OC)(c3cc4c(cc3OC)N(C)[C@H]3[C@@](O)(C(=O)OC)[C@H](OC(C)=O)[C@]5(CC)C=CCN6CC[C@]43[C@@H]65)C2)C1 [Vinblastine] (1000 nM) ... 89.8
5) O=C(c1ccc(C(=O)N2CCC(N3CCCC3)CC2)c(Nc2ccccc2)c1)N1CCC(N2CCCC2)CC1 [UNC1215] (30000 nM) ... 98.6
6) Nc1nc(Cl)nc2c1ncn2[C@H]1C[C@H](O)[C@@H](CO)O1 [Cladribine] (1000 nM) ... 101
7) O=C(c1ccc(C(=O)N2CCC(N3CCCC3)CC2)c(Nc2ccccc2)c1)N1CCC(N2CCCC2)CC1 [UNC1215] (3000 nM) ... 99.3

====

Below, each of the molecules is paired with its reported normalised response value.
# Tested on: CAL-51
# assay: normalised response (% of control), CellTiter-Glo; higher = more viable cells (100 = DMSO, 0 = benzethonium chloride kill control)
# reportedConditions: incubation time: 72 h
attributeMeasured: normalised response (%)

1) C=CCNC1=C2C[C@@H](C)C[C@H](OC)[C@H](O)[C@@H](C)/C=C(\C)[C@H](OC(N)=O)[C@@H](OC)/C=C\C=C(/C)C(=O)NC(=CC1=O)C2=O [Tanespimycin] (1 nM) ... 104
2) C=CCNC1=C2C[C@@H](C)C[C@H](OC)[C@H](O)[C@@H](C)/C=C(\C)[C@H](OC(N)=O)[C@@H](OC)/C=C\C=C(/C)C(=O)NC(=CC1=O)C2=O [Tanespimycin] (10 nM) ... 120
3) CC[C@]1(O)C[C@@H]2CN(CCc3c([nH]c4ccccc34)[C@@](C(=O)OC)(c3cc4c(cc3OC)N(C)[C@H]3[C@@](O)(C(=O)OC)[C@H](OC(C)=O)[C@]5(CC)C=CCN6CC[C@]43[C@@H]65)C2)C1 [Vinblastine] (100 nM) ... 31.6
4) CC(=O)O[C@]1(C(C)=O)CC[C@H]2[C@@H]3C=C(C)C4=CC(=O)CC[C@]4(C)[C@H]3CC[C@@]21C [Megestrol acetate] (1000 nM) ... 124
5) COc1cccc2c1C(=O)c1c(O)c3c(c(O)c1C2=O)C[C@@](O)(C(=O)CO)C[C@@H]3O[C@H]1C[C@H](N)[C@H](O)[C@H](C)O1 [Doxorubicin] (0.1 nM) ... 99.3
